All figures here come from patent US20080188528A1.

test.target: human C3a receptor (C3aR) (Homo sapiens, UniProt Q16581)
Construct: expressed in transfected cells
Sequence (Q16581 whole entry): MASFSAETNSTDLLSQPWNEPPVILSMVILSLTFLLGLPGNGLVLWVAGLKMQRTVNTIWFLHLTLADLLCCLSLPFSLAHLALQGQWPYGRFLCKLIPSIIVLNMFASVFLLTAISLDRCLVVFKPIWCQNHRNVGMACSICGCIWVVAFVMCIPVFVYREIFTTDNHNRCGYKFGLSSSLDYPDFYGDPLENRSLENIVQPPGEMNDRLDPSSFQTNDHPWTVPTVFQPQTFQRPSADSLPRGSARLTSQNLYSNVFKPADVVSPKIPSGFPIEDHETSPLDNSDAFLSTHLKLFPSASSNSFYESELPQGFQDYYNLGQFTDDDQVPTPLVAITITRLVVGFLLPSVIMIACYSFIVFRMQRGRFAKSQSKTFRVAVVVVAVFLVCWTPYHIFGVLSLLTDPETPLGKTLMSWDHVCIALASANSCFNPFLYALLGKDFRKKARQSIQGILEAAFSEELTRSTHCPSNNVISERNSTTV
assay.summary: Inhibition of human [125I]-C3a binding to human C3a receptor (SPA, membranes of HEK293 cells expressing recombinant C3aR)
test.settings: 0.1 nM [125I]-C3a, 3 hours at room temperature; Table 1
Method: Inhibition of human [^125I]-C3a binding to human C3a receptor Binding of human [^125I]-C3a to human C3a receptor (C3aR) was done using cell membranes from HEK293 cells stably expressing recombinant C3aR, in a homogeneous scintillation proximity assay (SPA). […] Incubation was done for 3 hours at room temperature followed by reading in a TopCount scintillation microplate reader. Non-specific binding was determined by adding 1 μM unlabeled C3a (Calbiochem) to the assay mixture. […]
pIC50: −log10 of the molar value.
metric: pIC50

N=C(N)NCCC[C@H](NC(=O)c1cccn(Cc2ccc3ccccc3n2)c1=O)C(=O)O: 6.30 to 7.30
N=C(N)NCCC[C@H](NC(=O)c1cccn(CC(c2ccccc2)c2ccccc2)c1=O)C(=O)O: > 7.30

Record pIC50 for all entries; do not skip any.
1. COc1cc2ccccc2cc1Cn1cccc(C(=O)N[C@@H](CCCNC(=N)N)C(=O)O)c1=O
2. CC(C)c1ccc(Cn2cccc(C(=O)N[C@@H](CCCNC(=N)N)C(=O)O)c2=O)cc1

1. 6.30 to 7.30
2. > 7.30
